# System: NF-kB luciferase reporter cells, IL-1b + dexamethasone, 18 h
# assay.procedure: GR-specific modulators of NF-kB trans-repression, confirmation, cell-based, luciferase, IL-1B plus dexamethasone (AID 686955)
# conditions: 4 uM, dexamethasone conc 2
result.type: assay II/I ratio
Just the number, please.

Below, each entry is followed by its recorded assay II/I ratio result.
[
  {
    "compound": "O=C(NC1NNC2NNC(c3cccnc3)CC21)C1CC1 (centres undefined)",
    "tested.system": "NF-kB luciferase reporter cells, IL-1b + dexamethasone, 18 h",
    "result.type": "assay II/I ratio",
    "experimental.result": 0.43
  },
  {
    "compound": "Cn1cc(C2=C(c3cccc(OCC(O)CO)c3)C(=O)NC2=O)c2ccccc21 (centres undefined)",
    "tested.system": "NF-kB luciferase reporter cells, IL-1b + dexamethasone, 18 h",
    "result.type": "assay II/I ratio",
    "experimental.result": 0.398
  },
  {
    "compound": "Cn1cc(C2=C(c3cccc(NCC(O)CO)c3)C(=O)NC2=O)c2cc(Cl)ccc21 (centres undefined)",
    "tested.system": "NF-kB luciferase reporter cells, IL-1b + dexamethasone, 18 h",
    "result.type": "assay II/I ratio",
    "experimental.result": 0.47
  },
  {
    "compound": "Cc1[nH]nc2c1N=C(c1ccccc1F)c1cc(C#N)ccc1N2",
    "tested.system": "NF-kB luciferase reporter cells, IL-1b + dexamethasone, 18 h",
    "result.type": "assay II/I ratio",
    "experimental.result": 0.386
  }
]

Please look up its assay II/I ratio: COc1ccc(O)c(C(=O)c2ccc(C(=O)O[C@H]3CCCNC[C@@H]3NC(=O)c3ccncc3)cc2)c1F
0.659

Please look up its assay II/I ratio: Cn1cc(C2=C(c3ccccc3[N+](=O)[O-])C(=O)NC2=O)c2ccccc21
0.646

Please look up its assay II/I ratio: COc1cccc(-n2ncc3c(N/N=C/c4ccc(S(C)(=O)=O)cc4)ncnc32)c1
0.242

Please look up its assay II/I ratio: COc1cccc(-n2ncc3c(N/N=C/c4ccncc4)ncnc32)c1
0.362

Please look up its assay II/I ratio: O=C(Nc1n[nH]c2nc(-c3ccc(O)cc3)c(Br)cc12)C1CC1
0.684

====

# Test system: NF-kB luciferase reporter cells, IL-1b + dexamethasone, 18 h
# assay.procedure: GR-specific modulators of NF-kB trans-repression, confirmation, cell-based, luciferase, IL-1B plus dexamethasone (AID 686955)
# conditions: dexamethasone concentration 2; at 1 µM
// returns FALSE unless normalized assay II/I ratio is strictly below 2, in which case TRUE

[
  {
    "compound": "Cc1[nH]nc2c1N=C(c1ccccc1F)c1cc(C#N)ccc1N2",
    "assigned.label": "FALSE"
  },
  {
    "compound": "O=C(NC1NNC2NNC(c3cccnc3)CC21)C1CC1 (centres undefined)",
    "assigned.label": "TRUE"
  },
  {
    "compound": "Cn1cc(C2=C(c3cccc(OCC(O)CO)c3)C(=O)NC2=O)c2ccccc21 (centres undefined)",
    "assigned.label": "TRUE"
  },
  {
    "compound": "O=C(Nc1n[nH]c2nc(-c3ccc(O)cc3)c(Br)cc12)C1CC1",
    "assigned.label": "FALSE"
  },
  {
    "compound": "COc1ccc(O)c(C(=O)c2ccc(C(=O)O[C@H]3CCCNC[C@@H]3NC(=O)c3ccncc3)cc2)c1F",
    "assigned.label": "TRUE"
  }
]

Determine whether this compound shows normalized assay II/I ratio lower than 2 (ties excluded): COc1cccc(-n2ncc3c(N/N=C/c4ccncc4)ncnc32)c1
TRUE

Determine whether this compound shows normalized assay II/I ratio lower than 2 (ties excluded): COc1cccc(-n2ncc3c(N/N=C/c4ccc(S(C)(=O)=O)cc4)ncnc32)c1
TRUE

Determine whether this compound shows normalized assay II/I ratio lower than 2 (ties excluded): Cn1cc(C2=C(c3ccccc3[N+](=O)[O-])C(=O)NC2=O)c2ccccc21
FALSE
